- STUDY SYSTEM: Intercellular adhesion molecule (ICAM-1), Integrin alpha-L/beta-2 (Homo sapiens, UniProt P05107+P20701)
- Sequence (P20701 whole entry): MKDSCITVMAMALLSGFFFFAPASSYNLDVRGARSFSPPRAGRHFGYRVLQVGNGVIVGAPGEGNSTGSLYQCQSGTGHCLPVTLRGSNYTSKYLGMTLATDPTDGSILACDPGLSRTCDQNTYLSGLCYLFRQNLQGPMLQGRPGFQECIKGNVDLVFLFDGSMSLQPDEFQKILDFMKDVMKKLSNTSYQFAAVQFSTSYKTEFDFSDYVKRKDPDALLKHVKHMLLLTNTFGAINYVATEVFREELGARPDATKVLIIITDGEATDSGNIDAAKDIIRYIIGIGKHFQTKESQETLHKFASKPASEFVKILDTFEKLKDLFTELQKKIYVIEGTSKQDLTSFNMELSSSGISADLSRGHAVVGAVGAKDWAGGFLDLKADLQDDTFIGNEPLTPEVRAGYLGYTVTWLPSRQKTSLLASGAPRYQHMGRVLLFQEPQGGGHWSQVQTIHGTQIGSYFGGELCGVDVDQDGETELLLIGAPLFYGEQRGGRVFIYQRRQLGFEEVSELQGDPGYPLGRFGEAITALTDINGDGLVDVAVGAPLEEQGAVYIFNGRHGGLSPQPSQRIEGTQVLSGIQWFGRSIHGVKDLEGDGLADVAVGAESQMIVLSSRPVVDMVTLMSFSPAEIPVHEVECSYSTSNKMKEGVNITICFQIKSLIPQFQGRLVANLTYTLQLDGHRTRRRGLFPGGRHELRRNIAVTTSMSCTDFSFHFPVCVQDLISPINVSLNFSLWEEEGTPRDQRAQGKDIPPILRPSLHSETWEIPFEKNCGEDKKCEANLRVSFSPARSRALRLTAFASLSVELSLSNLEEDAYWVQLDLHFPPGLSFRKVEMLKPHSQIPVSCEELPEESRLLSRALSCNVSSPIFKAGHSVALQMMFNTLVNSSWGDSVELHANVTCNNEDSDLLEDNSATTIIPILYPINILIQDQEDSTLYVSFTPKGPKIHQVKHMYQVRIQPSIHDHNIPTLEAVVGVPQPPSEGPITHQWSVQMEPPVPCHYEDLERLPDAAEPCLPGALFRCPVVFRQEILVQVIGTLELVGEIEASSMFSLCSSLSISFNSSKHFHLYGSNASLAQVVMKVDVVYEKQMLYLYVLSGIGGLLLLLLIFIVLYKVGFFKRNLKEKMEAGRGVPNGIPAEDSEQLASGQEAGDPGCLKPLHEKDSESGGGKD
- Sequence (P05362 whole entry, further chain): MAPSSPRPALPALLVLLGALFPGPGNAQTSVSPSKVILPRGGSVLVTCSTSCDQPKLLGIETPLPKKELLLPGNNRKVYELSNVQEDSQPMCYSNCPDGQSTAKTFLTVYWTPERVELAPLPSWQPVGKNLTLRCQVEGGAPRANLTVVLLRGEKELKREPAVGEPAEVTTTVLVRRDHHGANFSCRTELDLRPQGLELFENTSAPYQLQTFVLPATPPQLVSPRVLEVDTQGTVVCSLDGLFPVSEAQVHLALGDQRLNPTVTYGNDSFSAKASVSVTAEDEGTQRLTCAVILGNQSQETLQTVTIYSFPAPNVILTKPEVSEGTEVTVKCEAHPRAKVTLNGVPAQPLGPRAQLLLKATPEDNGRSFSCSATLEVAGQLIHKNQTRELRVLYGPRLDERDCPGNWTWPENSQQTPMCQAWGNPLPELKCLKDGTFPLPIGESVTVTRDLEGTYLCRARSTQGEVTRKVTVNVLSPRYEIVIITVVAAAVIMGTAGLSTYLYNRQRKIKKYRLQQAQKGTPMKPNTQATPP
- Sequence (P05107 whole entry): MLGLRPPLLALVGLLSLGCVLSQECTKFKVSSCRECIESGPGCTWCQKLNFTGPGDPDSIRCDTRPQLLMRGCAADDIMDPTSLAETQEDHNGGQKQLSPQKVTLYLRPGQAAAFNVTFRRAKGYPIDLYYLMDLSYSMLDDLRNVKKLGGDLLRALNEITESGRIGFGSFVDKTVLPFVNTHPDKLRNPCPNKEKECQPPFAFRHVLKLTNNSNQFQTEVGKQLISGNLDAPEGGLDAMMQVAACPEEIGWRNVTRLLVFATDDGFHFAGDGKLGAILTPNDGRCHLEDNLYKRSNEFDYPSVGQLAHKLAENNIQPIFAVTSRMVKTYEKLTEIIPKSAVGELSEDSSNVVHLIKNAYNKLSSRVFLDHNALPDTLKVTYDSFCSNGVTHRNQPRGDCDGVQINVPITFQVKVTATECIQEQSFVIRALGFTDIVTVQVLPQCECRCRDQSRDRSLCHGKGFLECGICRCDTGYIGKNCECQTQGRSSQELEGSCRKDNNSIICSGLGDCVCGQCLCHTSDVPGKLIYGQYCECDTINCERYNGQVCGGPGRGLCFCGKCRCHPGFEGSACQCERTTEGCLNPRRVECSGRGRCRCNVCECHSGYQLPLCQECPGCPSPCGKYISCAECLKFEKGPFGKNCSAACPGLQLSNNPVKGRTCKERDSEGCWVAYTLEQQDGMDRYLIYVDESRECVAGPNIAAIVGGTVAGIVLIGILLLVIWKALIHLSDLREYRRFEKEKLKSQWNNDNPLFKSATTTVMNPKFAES
- PROTOCOL: Inhibitory concentration against integrin LFA-1/ICAM-1 binding complex

COMPOUND | IC50
CC(=O)N[C@@H]1CCN(c2cc(-c3ccc(Sc4ccccc4C(C)C)c(C(F)(F)F)c3)ccn2)C1 | 62 nM
COc1ccccc1Sc1ccc(-c2ccnc(N3CCC(C(N)=O)CC3)c2)cc1C(F)(F)F | 140 nM
CC(=O)NC1CCN(c2cc(-c3ccc(Sc4ccccc4C(C)C)c(C(F)(F)F)c3)ncn2)C1 (centres undefined) | 220 nM
CC(C)c1ccccc1Sc1ccc(-c2cc(N3CCC(C(N)=O)CC3)ncn2)cc1C(F)(F)F | 230 nM
CC(C)c1ccccc1Sc1ccc(-c2ccnc(N3CCCC3)c2)cc1C(F)(F)F | 250 nM
CC(C)c1ccccc1Sc1ccc(-c2cc(N(C)C(C)C)ncn2)cc1C(F)(F)F | 740 nM
CC(C)c1ccccc1Sc1ccc(-c2ccnc(N3CCC(CO)CC3)c2)cc1C(F)(F)F | 160 nM
COc1ccccc1Sc1ccc(-c2ccnc(N3CCC[C@@H]3CO)c2)cc1C(F)(F)F | 331 nM
O[C@@H]1CCN(c2cc(-c3ccc(Sc4ccc5c(c4)OCCO5)c(C(F)(F)F)c3)ccn2)C1 | 126 nM
COc1ccccc1Sc1ccc(-c2ccnc(N3CCN(C(C)=O)CC3)c2)cc1C(F)(F)F | 121 nM
COc1ccccc1Sc1ccc(-c2ccnc(N3CCN(C=O)CC3)c2)cc1C(F)(F)F | 186 nM
CCOC(=O)CN1CCN(c2cc(-c3ccc(Sc4ccccc4C(C)C)c(C(F)(F)F)c3)ncn2)CC1 | 420 nM
COc1ccccc1Sc1ccc(-c2ccnc(N3CCCC(C(=O)O)C3)c2)cc1C(F)(F)F (centres undefined) | 122 nM
OCC1CCN(c2cc(-c3ccc(Sc4ccc5c(c4)OCCO5)c(C(F)(F)F)c3)ccn2)CC1 | 390 nM
CC(C)c1ccccc1Sc1ccc(-c2ccnc(N3CCN(C=O)CC3)c2)cc1C(F)(F)F | 165 nM
CC(C)c1ccccc1Sc1ccc(-c2csc(NCCN3CCOCC3)n2)cc1C(F)(F)F | 12000 nM
CC(C)c1ccccc1Sc1ccc(-c2cc(N3CCN(c4ccccn4)CC3)ncn2)cc1C(F)(F)F | 1270 nM
NC(=O)C1CCN(c2cc(-c3ccc(Sc4ccc5c(c4)OCCO5)c(C(F)(F)F)c3)ccn2)CC1 | 140 nM
O=C(O)C1CCCN(c2cc(-c3ccc(Sc4ccc5c(c4)OCCO5)c(C(F)(F)F)c3)ccn2)C1 (stereo in doubt; 18L) | 76 nM
